- Study target: Glucose-dependent insulinotropic receptor (Homo sapiens, UniProt Q8TDV5)
- Sequence (Q8TDV5 whole entry): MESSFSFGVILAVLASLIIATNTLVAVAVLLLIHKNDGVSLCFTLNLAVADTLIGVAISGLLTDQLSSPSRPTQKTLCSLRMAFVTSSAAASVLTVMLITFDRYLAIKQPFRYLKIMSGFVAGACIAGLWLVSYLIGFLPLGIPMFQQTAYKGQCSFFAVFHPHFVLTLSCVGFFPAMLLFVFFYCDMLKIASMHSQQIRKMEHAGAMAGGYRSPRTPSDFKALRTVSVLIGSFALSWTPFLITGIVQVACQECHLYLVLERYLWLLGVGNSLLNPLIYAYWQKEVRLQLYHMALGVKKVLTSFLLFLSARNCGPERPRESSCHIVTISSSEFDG
- Experiment description: Agonist activity against human GPR119 receptor expressed in HEK293 cells assessed as beta-lactamase production by cAMP response element assay
- Type: functional, cell-based
Would you kindly list EC50 for each of these molecules?
Write the number in nM without appending the unit.

Request - read-out EC50 | tested on Glucose-dependent insulinotropic receptor (Homo sapiens, UniProt Q8TDV5) | molecule CC(CNC(=O)Cc1ccccc1F)C1CCN(C(=O)OC(C)(C)C)CC1 (stereo unspecified)
808

Fill in the recorded EC50 for this molecule, with Glucose-dependent insulinotropic receptor (Homo sapiens, UniProt Q8TDV5) as test system: `C[C@@H](CNC(=O)Cc1c(F)ccc(F)c1F)C1CCN(C(=O)OC2(C)CC2)CC1`
236

Missing value: EC50, Glucose-dependent insulinotropic receptor (Homo sapiens, UniProt Q8TDV5), entry CC(CNC(=O)Cc1cc(F)ccc1F)C1CCN(C(=O)OC(C)(C)C)CC1 (stereo unspecified) . Fill in?
78

Write down the reported EC50 of `CC1(OC(=O)N2CCC(CCNC(=O)Cc3c(F)ccc(F)c3F)CC2)CC1` , test system: Glucose-dependent insulinotropic receptor (Homo sapiens, UniProt Q8TDV5).
868

Could you share what EC50 was measured for `C[C@H](CNC(=O)Cc1c(F)ccc(F)c1F)C1CCN(C(=O)OC2(C)CC2)CC1` , tested on Glucose-dependent insulinotropic receptor (Homo sapiens, UniProt Q8TDV5)?
44

Value wanted: EC50 (Glucose-dependent insulinotropic receptor (Homo sapiens, UniProt Q8TDV5)) of entry CC(CNC(=O)Cc1cccc(F)c1F)C1CCN(C(=O)OC(C)(C)C)CC1 (stereo unspecified)
75
